- test.summary: qHTS of small molecules that selectively kill Giardia lamblia: Hit Validation. Also: potency is read from the fitted curve at half-maximal effect.
- recorded.conditions: Giardia lamblia trophozoite viability, dose-response; series mostly up to 38.3 µM
Out of some 1,300 compounds screened, about 1,000 (77%) were called active. Not shown: some 7% with an inconclusive outcome. So high a share suggests a set chosen from earlier hits. The list shows a part of the results.
property: Potency

Use the examples below as a reference point.
{"columns": ["molecule", "Potency"],
 "data": [
  ["O=C1C[C@@H](c2ccc(O[C@@H]3O[C@H](CO)[C@@H](O)[C@H](O)[C@H]3O)cc2)Oc2cc(O)ccc21", "inactive"],
  ["CN(C)CCCn1cnc2c(c1=N)C(c1ccccc1)c1ccc3ccccc3c1O2 (stereo not given)", "20.5 µM (active)"],
  ["CC(NC(=O)c1ccc(N(C)C)c([N+](=O)[O-])c1)c1ccc(-n2ccnc2)cc1 (stereo not given)", "4.6 µM (active)"],
  ["CCN(CC)C(=O)CSc1nnc2nnc3cc(Cl)ccc3n12", "1.3 µM (active)"],
  ["Cc1ncc([N+](=O)[O-])n1CCOC(=O)c1ccccc1", "1.03 µM (active)"],
  ["C[C@@H]1CC=C[C@H]2[C@H]1C(=O)N(Cc1ccccc1)[C@H]2c1ccc2ccccc2c1/C=C/c1ccccc1", "inactive"]
]}

Query (molecule): Cc1c(C(=O)c2ccc(Cl)cc2[N+](=O)[O-])c2ccccn2c1CCC#N ; field requested: Potency
0.41 µM (active)

Please do the same for O=C(CSc1cccc[n+]1[O-])Nc1cc2c(cc1Cl)C(=O)c1ccccc1C2=O as well.
2.9 µM (active)

Record: Cc1ccc(-c2nc(-c3ccccc3)no2)c(Cl)c1
1.63 µM (active)

Then Cc1ncc([N+](=O)[O-])n1CCOC(=O)c1ccc(Br)cc1 ?
1.16 µM (active)

---

- test.summary: qHTS of small molecules that selectively kill Giardia lamblia: Hit Validation.
- recorded.conditions: Giardia lamblia trophozoite viability, dose-response; series mostly up to 38.3 µM
Hit rate of the full screen: of about 1,300 compounds, about 1,000 (77%) were called active. About 7% were inconclusive and are not listed. Calls come from the whole dose curve; as a rule, active = well fitted inhibition curve with a large enough effect; inconclusive = small, poorly fitted or top-dose-only effect; inactive = no such curve, though single readings can be large or run the other way. The set was probably picked from earlier hits. This is one part of the list.
Your answer must be one of the following: true (active), false (inactive)

Field: example entries. Status: answers known.
{"columns": ["compound", "classification"],
 "data": [
  ["COc1ccc(NC(=O)c2ccc([N+](=O)[O-])cc2[N+](=O)[O-])c(OC)c1", "true"],
  ["O=C(CSc1ccsc1[N+](=O)[O-])NCCc1ccccc1", "true"],
  ["Cc1cc2nc(-c3ccc[nH]c3=O)[nH]c2cc1C", "true"]
]}

Please let me know the test result on file for Cn1nc(-c2cccnc2)nc2c(=O)n(C)c(=O)nc1-2 .
true

And what about the compound CN(C)c1cc(NC(=O)CNC(C)(C)CC(C)(C)C)c2ccccc2n1 ?
true

One more compound: O=C(Nc1ccc(-c2cn3ccccc3n2)cc1)c1ccco1
true

Lookup CC(=O)Oc1ccc2c(=O)c(Oc3ccccc3[N+](=O)[O-])coc2c1
true

Another compound to look at: Cc1c(NC(=O)c2cc(-c3ccc(Cl)c(Cl)c3)on2)c(=O)n(-c2ccccc2)n1C
false

Same question for COC(=O)c1sc(NC(=O)c2ccc([N+](=O)[O-])o2)c(C#N)c1C please.
true

Also Cn1nc(-c2ccncc2)nc2c(=O)n(C)c(=O)nc1-2 ?
true

---

- test.summary: qHTS of small molecules that selectively kill Giardia lamblia: Hit Validation.
- recorded.conditions: Giardia lamblia trophozoite viability, dose-response; series mostly up to 38.3 µM
In all, about 1,300 compounds went through this assay and about 1,000 (77%) were called active. About 7% were inconclusive and are not listed. The call rests on the fitted dose curve; in most records, active means well fitted inhibition curve with a large enough effect; inconclusive means small, poorly fitted or top-dose-only effect; inactive means no such curve, though single readings can be large or run the other way. The set was probably picked from earlier hits. The list shows a part of the results.
Mark one answer only. Choices: Y (active), N (inactive)

{"columns": ["compound", "classification"],
 "data": [
  ["COc1cccc(NC2c3ccccc3C(=O)N2Cc2ccco2)c1 (stereo unspecified)", "N"]
]}

Could you kindly confirm the outcome this assay logged for CN(C)c1ccc2nsnc2c1[N+](=O)[O-] ?
Y

And what about the compound Cc1ncc([N+](=O)[O-])n1CCOC(=O)NC(NCc1cccnc1)C(Cl)(Cl)Cl (stereo unspecified) ?
Y

// query: O=C(COc1cccnc1[N+](=O)[O-])Nc1ccc2c(c1)OCO2
Y

Now consider CCOC(=O)Cc1csc(SCC(=O)NC2CCCCC2)n1 and answer again.
N

Also Cc1c(Br)c([N+](=O)[O-])nn1C(C)C(=O)Nc1ccc2c(c1)OCO2 (stereo unspecified) ?
Y

Further, for O=C(COc1cccnc1[N+](=O)[O-])Nc1ccc2c(c1)OC(F)(F)O2 ?
Y

Another: O=C(CSc1ccsc1[N+](=O)[O-])N1CCN(c2ccccn2)CC1
Y

---

- test.summary: qHTS of small molecules that selectively kill Giardia lamblia: Hit Validation.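 Also: viability measured as ATP content by luminescence so killing lowers signal; trophozoites exposed to compounds for 48 h anaerobically at 37 °C; nearly all actives have a fitted effect of over 65% in size.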
- recorded.conditions: Giardia lamblia trophozoite viability, dose-response; series mostly up to 38.3 µM
About 1,000 (77%) of roughly 1,300 compounds were called active. Inconclusive results (about 7%) are left out. Calls come from the whole dose curve; as a rule, active = well fitted inhibition curve with a large enough effect; inconclusive = small, poorly fitted or top-dose-only effect; inactive = no such curve, though single readings can be large or run the other way. So high a share suggests a set chosen from earlier hits. The list shows a part of the results.
Please answer using one outcome listed in active, inactive

Below, 2 compounds whose answers are already recorded.
{"columns": ["compound", "classification"],
 "data": [
  ["COc1cc(C(=S)N2CCOCC2)ccc1OC(=O)/C=C/c1ccco1", "inactive"],
  ["O=C(COc1cccnc1[N+](=O)[O-])Nc1cccc2ccccc12", "active"]
]}

Per the records of this test, what outcome belongs to COc1ccccc1NCCC(=O)OCC(=O)NC1CCCCCC1 ?
inactive

---

- test.summary: qHTS of small molecules that selectively kill Giardia lamblia: Hit Validation.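 Also: viability measured as ATP content by luminescence so killing lowers signal; trophozoites exposed to compounds for 48 h anaerobically at 37 °C; nearly all actives have a fitted effect of over 65% in size.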
- recorded.conditions: Giardia lamblia trophozoite viability, dose-response; series mostly up to 38.3 µM
About 1,000 (77%) of roughly 1,300 compounds were called active. Inconclusive results (about 7%) are left out. Calls come from the whole dose curve; as a rule, active = well fitted inhibition curve with a large enough effect; inconclusive = small, poorly fitted or top-dose-only effect; inactive = no such curve, though single readings can be large or run the other way. The set was probably picked from earlier hits. Some of the results follow.
Respond using exactly one of the listed classes: 1 (yes) (active), 0 (no) (inactive)

{"columns": ["compound", "classification"],
 "data": [
  ["NC(=O)C1CCN(c2cc(Cl)ccc2[N+](=O)[O-])CC1", "1 (yes)"],
  ["Cc1cccc(-n2ncc3c(N4CCCC4)ncnc32)c1", "1 (yes)"],
  ["CCCc1ccc(-c2cc(C(=O)N/N=C/c3ccc([N+](=O)[O-])o3)c3ccccc3n2)cc1", "1 (yes)"],
  ["COc1ccc(-c2nc3ccccc3n2OCC(=O)O)cc1", "1 (yes)"],
  ["c1ccc2cc3c(NCCN4CCOCC4)ccnc3cc2c1", "1 (yes)"]
]}

Which outcome was entered for the compound CN(C(=O)OC(C)(C)C)c1ccc(-c2nc3ccccc3s2)cc1 in this test?
1 (yes)

Query Cc1c[n+]([O-])ccc1[N+](=O)[O-] next
1 (yes)

What do you have for O=C(N/N=C/c1ccc([N+](=O)[O-])s1)c1cccnc1 ?
1 (yes)

Also need CC(=O)CSc1ccc(-c2nc3cc(C)c(C)cc3[nH]2)cn1 , thanks.
1 (yes)

How about this compound: Cc1ccc(C(=O)N/N=C/c2ccc([N+](=O)[O-])s2)cc1
1 (yes)

---

- test.summary: qHTS of small molecules that selectively kill Giardia lamblia: Hit Validation.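 Also: viability measured as ATP content by luminescence so killing lowers signal; trophozoites exposed to compounds for 48 h anaerobically at 37 °C; nearly all actives have a fitted effect of over 65% in size.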
- recorded.conditions: Giardia lamblia trophozoite viability, dose-response; series mostly up to 38.3 µM
The campaign covered roughly 1,300 compounds. About 1,000 (77%) were called active. Not shown: some 7% with an inconclusive outcome. The call rests on the fitted dose curve; in most records, active means well fitted inhibition curve with a large enough effect; inconclusive means small, poorly fitted or top-dose-only effect; inactive means no such curve, though single readings can be large or run the other way. So high a share suggests a set chosen from earlier hits. The list shows a part of the results.
Pick one: Y (active), N (inactive)

Some entries whose results are on file:
{"columns": ["compound", "classification"],
 "data": [
  ["CCC(=O)N1CCN(c2ccc(NC(=O)c3ccc([N+](=O)[O-])o3)cc2)CC1", "Y"],
  ["Cn1cccc1C1CCCN1CC(=O)Nc1ccc(F)c(F)c1F (stereo not drawn)", "N"],
  ["CCOC(=O)/C=C/[C@H]1CCc2cccc(Cl)c2O1", "N"],
  ["CS/C(Nc1cc(Cl)ccc1Cl)=C(/C#N)C(=O)c1ccco1", "Y"],
  ["Cn1c(=NC(=O)c2cnccn2)sc2ccccc21", "Y"]
]}

Fill in: this test's call for N#Cc1ccc(-c2c(-c3ccccc3)ncc3cc(F)ccc23)cc1 is ___
N

Same question for CC(=O)NCCNC(=O)c1ccc(CSc2ccc(Cl)cc2)cc1 please.
N

Then this compound: O=C(O)C1CCCN1S(=O)(=O)c1ccc(Br)cc1 (stereo not drawn)
N

Now consider CC(C)(C)C(=O)N1CCN(c2ccc(NC(=O)c3ccc([N+](=O)[O-])o3)cc2)CC1 .
Y

// same read-out, input: CCC(=O)N1CCN(c2ccc(Cl)cc2NC(=O)c2ccc([N+](=O)[O-])o2)CC1
Y

---

- test.summary: qHTS of small molecules that selectively kill Giardia lamblia: Hit Validation.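 Also: viability measured as ATP content by luminescence so killing lowers signal; trophozoites exposed to compounds for 48 h anaerobically at 37 °C; nearly all actives have a fitted effect of over 65% in size.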
- recorded.conditions: Giardia lamblia trophozoite viability, dose-response; series mostly up to 38.3 µM
The campaign covered roughly 1,300 compounds. About 1,000 (77%) were called active. About 7% were inconclusive and are not listed. Calls follow the shape of the dose curve; as a rule, active = well fitted inhibition curve with a large enough effect; inconclusive = small, poorly fitted or top-dose-only effect; inactive = no such curve, though single readings can be large or run the other way. So high a share suggests a set chosen from earlier hits. The list shows a part of the results.
One label from this list, please: y = active, n = inactive

Record excerpt, results attached:
{"columns": ["compound", "classification"],
 "data": [
  ["CC(=O)NC(Cc1ccccc1F)C(=O)NC1CCN(c2ncccc2[N+](=O)[O-])CC1 (stereo not given)", "y"],
  ["[O-][n+]1c2ccccc2c2n1CCN=C2c1ccc(Cl)cc1", "y"],
  ["Cc1ccc(C2=NCCn3c2c2ccccc2[n+]3[O-])cc1", "y"],
  ["O=C(Nc1ccc2c(c1)OCCO2)c1ccc(Br)o1", "y"],
  ["CC(=O)NC(Cc1ccccc1)C(=O)NC1CCN(c2ncccc2[N+](=O)[O-])CC1 (stereo not given)", "y"]
]}

I'd appreciate the recorded outcome for COc1ccc(CC(NC(C)=O)C(=O)NC2CCN(c3ncccc3[N+](=O)[O-])CC2)cc1 (stereo not given) from this test.
y

Now consider CC(NC(=O)c1ccccc1F)c1nnc(SCC(=O)NC2CCCC2)n1C (stereo not given) and answer again.
n

Lookup Cc1cnc([N+](=O)[O-])n1CCOC(=O)NC(=O)c1ccc(C(F)(F)F)cc1
y

What do you get for CS(=O)(=O)N1CCN(c2ccc(NC(=O)c3ccc([N+](=O)[O-])o3)cc2)CC1 ?
y

Please do the same for O=C(Nc1ccc2c(c1)OCCO2)c1cc(-c2ccccn2)nc2ccc(Br)cc12 as well.
y
